Values compiled from paper PMC4454046.

# assayed target: Lipocalin-2 (LCN2, NGAL) (human, UniProt P80188 21-198)
# Sequence (P80188 21-198): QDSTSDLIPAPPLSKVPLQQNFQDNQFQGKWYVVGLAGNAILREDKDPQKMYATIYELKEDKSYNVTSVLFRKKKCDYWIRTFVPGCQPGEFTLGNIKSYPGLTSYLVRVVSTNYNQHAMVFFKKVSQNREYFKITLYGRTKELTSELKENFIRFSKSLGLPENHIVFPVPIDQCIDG
# assay overview: SPR (BIAcore 3000, CM5 chip); SPR BIAcore 3000, 24 C, LCN2 amine-coupled to CM5 chip; running buffer for the Kd assay not stated (HBS-EP used for SA-chip activation)
# test conditions: protein: recombinant; tags: C-terminal polyhistidine
measure name: Kd (nM)
One number for each entry, in nM.

LCN2_apta5 (ssDNA) DNA: ATACCAGCTTATTCAATTCCCAGCAATCCATTACTTCGTTAGTTCTAATTACCAACCAGATAGTAAGTGCAATCT	0.0816
LCN2_apta31 (ssDNA) DNA: ATACCAGCTTATTCAATTCCCGATCAGAACATCGGCTCTTATACCCGTTTTGGTCACGAGATAGTAAGTGCAATCT	1780
LCN2_apta29 (ssDNA) DNA: ATACCAGCTTATTCAATTCCGTGACAAGTTGCAGGGGCTGTGCGGTTCTTTTTTTTTGAGATAGTAAGTGCAATCT	565
LCN2_apta30 (ssDNA) DNA: ATACCAGCTTATTCAATTGCACGGGTAAGAAAACGGGGAACTTGAAAGTAGTGCTGTGAGATAGTAAGTGCAATCT	86.4
LCN2_apta8 (ssDNA) DNA: ATACCAGCTTATTCAATTCGACAATAGATCAGAACGCTCGAGTTCGCGAGGTGGGGGAGATAGTAAGTGCAATCT	3.42
LCN2_apta6 (ssDNA) DNA: ATACCAGCTTATTCAATTGCACGGTACGCTCTTGAGTGATCCACAATTTCTAACCGCGAGATAGTAAGTGCAATCT	0.801

Quick one: give me Kd for each item below, same order please.
1. LCN2_apta18 (ssDNA) DNA: ATACCAGCTTATTCAATTCCAGCAAGTAAAGGTTATTTACTAGTTAGGGGCTTCTTGAGATAGTAAGTGCAATCT
2. LCN2_apta4 (ssDNA) DNA: ATACCAGCTTATTCAATTCGGAGGGCGGAAGCAAAGCGTAACAGAAAGCCAACACGCGAGATAGTAAGTGCAATCT
3. LCN2_apta23 (ssDNA) DNA: ATACCAGCTTATTCAATTCGTATCAGAATCGCGTGTCACCTTATCTGCCGTATGGGTGAGATAGTAAGTGCAATCT
4. LCN2_apta34 (ssDNA) DNA: ATACCAGCTTATTCAATTCGGAGCGGTAGTTTGAGGAGGAAACAACCCGGCCTTGGAGAGATAGTAAGTGCAATCT

Ans.
3380
0.0609
158
2870

Look up Kd for the entries below, preserving their order.
1. LCN2_apta27 (ssDNA) DNA: ATACCAGCTTATTCAATTGCGATAATCTTGGTTTTCTTTTCAGTTTCTTTAGGGCGGGAGATAGTAAGTGCAATCT
2. LCN2_apta3 (ssDNA) DNA: ATACCAGCTTATTCAATTCCCAAGGGCGAGCTGGCGGCTTGTTGCATAAATTCGTGGAGATAGTAAGTGCAATCT
3. LCN2_apta1 (ssDNA) DNA: ATACCAGCTTATTCAATTGCCACGACTTGGGGAATCCTAAGGGCTGTGAACGCCGTGGAGATAGTAAGTGCAATCT

Ans.
[13.9, 0.00719, 0.000647]
